The values you see were collected from the supplement of paper PMC6805474.

Listed here are molecules together with their documented phenotypic severity score.
Tested on: Schistosoma mansoni schistosomula (NMRI)
Assay: phenotypic severity score (0-4); higher = more antischistosomal effect, active = 2 or more
Conditions: 24 h; 10 µM
assay_readout: phenotypic severity score

> print(dat)
                               given.smiles                         system.under.test              assay.readout  data.value
1  Cc1cc(C)n(-c2ccc(NC(=O)C3CCN(Cc4cnc(C)s4)CC3)cc2)n1  Schistosoma mansoni schistosomula (NMRI)  phenotypic severity score           0
2    Clc1ccc(-n2cc(COc3ccnc4ccccc34)nn2)cc1  Schistosoma mansoni schistosomula (NMRI)  phenotypic severity score           0
3        Cc1cc(C)nc(-n2nc(C)cc2Nc2ccccc2)n1  Schistosoma mansoni schistosomula (NMRI)  phenotypic severity score           2
4  Cc1cc(Nc2ccncc2)n2nc(C)c(-c3ccccc3Cl)c2n1  Schistosoma mansoni schistosomula (NMRI)  phenotypic severity score           0
5    Cc1cc(OCC(=O)NCc2ccccc2)c2cc(Br)ccc2n1  Schistosoma mansoni schistosomula (NMRI)  phenotypic severity score           0
6     Cc1nn2c(O)c3c(nc2c1-c1ccc(F)cc1)CCCC3  Schistosoma mansoni schistosomula (NMRI)  phenotypic severity score           0

---

Test system: Schistosoma mansoni schistosomula (NMRI)
Assay: phenotypic severity score (0-4); higher = more antischistosomal effect, active = 2 or more
Conditions: 48 h; 10 µM
Possible outcomes: active, inactive

> print(dat)
                                    compound                         system.under.test     group
 1  CCS(=O)(=O)N(Cc1ccco1)Cc1cc2ccc(C)cc2nc1O  Schistosoma mansoni schistosomula (NMRI)  inactive
 2  C[C@H](c1ccc2c(c1)CCCC2)N(C)c1ncc2c(N)nc(N)nc2n1  Schistosoma mansoni schistosomula (NMRI)  inactive
 3  COc1cccn2c(C(=O)N3CCCCC3)c(C(F)(F)F)nc12  Schistosoma mansoni schistosomula (NMRI)  inactive
 4  O=C([C@@H](c1ccc(Cl)cc1)c1cccnc1)N1CCN(c2ccc(C(F)(F)F)cc2)CC1  Schistosoma mansoni schistosomula (NMRI)    active
 5  O=C(Nc1ccccc1)c1ccc(-c2cc3ccncc3cc2OC2CCNCC2)s1  Schistosoma mansoni schistosomula (NMRI)  inactive
 6       N=C(N)c1ccc(-c2cc(-c3ccccc3)on2)cc1  Schistosoma mansoni schistosomula (NMRI)  inactive
 7  Cc1ccc2cc(C3NC(=O)c4ccccc4N3)c(Cl)nc2c1 (stereo not given)  Schistosoma mansoni schistosomula (NMRI)  inactive
 8  CN1CCN(CCCOc2ncc(Nc3ncc(-c4ccc(C(F)(F)F)c(F)c4)nc3C(N)=O)cn2)CC1  Schistosoma mansoni schistosomula (NMRI)    active
 9  Cc1ccc(-c2cc(C(=O)Nc3cccnc3)c3cc(Br)ccc3n2)cc1  Schistosoma mansoni schistosomula (NMRI)  inactive
10  COc1cccc(OC)c1C(=O)Nc1ccc(Cl)c(-c2nc3ccccc3s2)c1  Schistosoma mansoni schistosomula (NMRI)    active

---

System: Schistosoma mansoni schistosomula (NMRI)
Assay: phenotypic severity score (0-4); higher = more antischistosomal effect, active = 2 or more
Details: 72 h; 10 µM
Possible outcomes: active, inactive

> print(dat)
                                    compound     group
 1     CCn1cnc2c(Nc3cc(F)cc(F)c3)nc(C#N)nc21    active
 2  O=C(NCCc1c[nH]c2ccccc12)c1cc2ccccc2oc1=O  inactive
 3      Nc1nc(N)c2c3c(sc2n1)CN(Cc1ccccc1)CC3  inactive
 4  COC(=O)C1=C(C)NC(C)=C(C(=O)OC(C)C)C1c1cccc2nonc12 (stereo unspecified)  inactive
 5           COc1cccc(OCC(=O)c2ccc(Br)cc2)c1  inactive
 6  Cc1ccc2[nH]c(C3CCCNC3)c(-c3ccncc3)c2c1 (stereo unspecified)  inactive
 7  O=C(NCc1cc(Cl)cc(Cl)c1)c1c(C(F)(F)F)nc2ccccn12  inactive
 8  CCn1ncc2c(NC3CCOCC3)c(CNC(=O)c3ccnn3C)c(C)nc21  inactive
 9  O=C(Nc1nc(-c2ccccn2)cs1)c1cncn1-c1ccccc1  inactive
10  CC(C)C(C(=O)Nc1ccc(S(=O)(=O)N(C)C)cc1)c1ccc(Cl)cc1 (stereo unspecified)    active
11  Cc1nc(-c2ccccn2)nc(NCCc2ccc(S(C)(=O)=O)cc2)c1Cl    active

---

System: Schistosoma mansoni schistosomula (Liberian)
Test: drug effect (1 - score/DMSO control score) (fraction); higher = more antischistosomal effect, active = 0.5 or more; extreme values may be limits of the assay
Conditions: 72 h; 10 µM
Possible outcomes: 1 (active), -1 (inactive)

> print(dat)
                                    compound  group
 1  CN1CCC(NCc2cccc(-c3ccc(S(=O)(=O)NCc4ccccc4)cc3)c2)CC1      1
 2  O=C(c1ccc(NCCO)cc1)C1C[C@H]1c1ccc(Cl)cc1 (some centres undefined)      1
 3  COc1ccc(C2=NN(C3CCCCCC3)C(=O)C2(C)C)cc1OCCCCOc1ccc(-c2nn[nH]n2)cc1     -1
 4  CCCCc1ccc(NC(=O)Nc2ccc(O[C@H]3CCCC[C@@H]3N(C)c3ccccc3)c(F)c2)cc1      1
 5  Cc1cccc(NC(=O)c2cc(S(=O)(=O)N(C)c3ccc(F)cc3)ccc2Cl)n1     -1
 6   COC(=O)Nc1nc2cc(C(=O)c3ccccc3)ccc2[nH]1     -1
 7    O=C(Nc1nnc(-c2ccc(Cl)s2)o1)c1ccc(Cl)s1     -1
 8    CCCn1c(NC(=O)c2ccc3ccccc3n2)nc2ccccc21     -1
 9  COc1ccc(Oc2ccc([C@@H](C)N(C)c3ncc4c(N)nc(N)nc4n3)cc2)cc1      1
10  c1ccc(Oc2ccc(-c3cc(N4CCOCC4)[nH]n3)cc2)cc1     -1
11  COC(=O)c1c(NC(=O)c2cc3ccccc3oc2=O)sc2c1CCN(Cc1ccccc1)C2      1
12  COc1cccc(NC(=O)c2c(NC(=O)c3cccnc3)sc3c2CCC3)c1     -1
13  CC(C)n1nc(-c2cc3c(Cl)cccc3[nH]2)c2c(N)ncnc21      1
14  CCN(CC)S(=O)(=O)c1ccc(Cl)c(C(=O)Nc2ccc3nc(C)sc3c2)c1     -1
15  O=C(NC1CCCCC1)N1CCN(Cc2ccc3c(c2)OCO3)CC1     -1
16  CCS(=O)(=O)N(Cc1ccco1)Cc1cc2ccc(C)cc2nc1O      1
17  NS(=O)(=O)c1cccc(-c2ccc3ncc(N4CCOCC4)nc3c2)c1     -1
18  COc1ccc2nccc(NC(=O)C3CCN(CCc4ccc(Cl)cc4)CC3)c2n1     -1
19  Cc1cc(C)n(-c2ccc(NC(=O)C3CCN(Cc4cnc(C)s4)CC3)cc2)n1     -1
20                Nc1nccc2ccc(Oc3ccncc3)cc12     -1
21  O=C(NCCN1CCCC1)c1cc(NCCN2CCOCC2)nc2ccc(Cl)cc12     -1
22  COc1ccc(C2=NCCN2)cc1-c1cn(-c2cccc(C3=NCCN3)c2)nn1     -1
23  CCc1nc2ccc(Cl)cn2c1C(=O)NCc1ccc(N2CCC(c3ccc(OC(F)(F)F)cc3)CC2)cc1     -1
24  CCc1c(C)nc(-n2nc(C)cc2NC(=O)c2ccccc2SC)[nH]c1=O      1
25  O=C(Nc1ccnc(-c2cccnc2)n1)c1cc(C(F)(F)F)cc(C(F)(F)F)c1     -1
26  COc1ccc(Cn2cnc3c(-c4ccco4)nc(Cl)nc32)cc1     -1
27  Cc1cc2ccccc2n1CC(=O)N1CC(C(=O)N2CCCCC2)Oc2ccccc21 (centres undefined)     -1
28  Brc1cncc(-c2cc(NCCCn3ccnc3)nc(-c3ccccc3)n2)c1      1
29  CCN(CC)CCCN1CCN(C(=O)c2cccc(-c3noc(C(F)(F)F)n3)c2)CC1     -1
30  O=C(Nc1ccccc1-c1nc2c(C(=O)O)cccc2o1)c1ccccc1     -1
31  c1ccc(Oc2ccc(-c3cc(N4CCNCC4)[nH]n3)cc2)cc1     -1
32  C[C@H](c1ccc2c(c1)CCCC2)N(C)c1ncc2c(N)nc(N)nc2n1     -1
33  CC(C(=O)Nc1ccc2oc(-c3ccncc3)nc2c1)c1ccccc1 (centres undefined)     -1
34  Cc1ccc(S(=O)(=O)n2cc(-c3ccnc(N)c3)c3cc(Br)cnc32)cc1      1
35  CNC(=O)c1cc(S(=O)(=O)N2CCN(c3ccccn3)CC2)cs1     -1
36   COc1ccc2nc(C)cc(OCC(=O)Nc3ccccc3OC)c2c1     -1
37    O=C(c1ccc(F)cc1)N(CCNc1ccccc1)c1ccccc1     -1
38       Cc1cc(Nc2ccc(C(F)(F)F)cc2)n2ccnc2n1     -1
39  COc1cncc(-c2cncc(N3CCN(c4ccncc4)CC3)n2)c1      1
40  c1cncc(NCc2ccc(-c3cc4ccncc4cc3OC3CCNCC3)s2)c1      1
41  COc1cc(NC(C)CCCN)c2ncccc2c1 (centres undefined)     -1
42  CCOC(=O)NC(=O)c1ccsc1NC(=O)c1nc2ccccc2s1     -1
43  NCCCC(N)(C(=O)O)C(F)F (centres undefined)     -1
44  CCC(Sc1nc2ccccc2o1)C(=O)Nc1nccs1 (centres undefined)      1
